As shown below, each of these sequences has a reported IC50 value.
subject-of-test: HLA-A*1101 (Homo sapiens, UniProt P04439, A114D/D185E/E176A/F33Y/L180Q/S129P/T187R)
experiment: biochemical
Assay type: binding
No end group written: not given here.
# value in nM; strip the unit string

sequence-data | subject-of-test | IC50 [nM]
KQENWYSLKK | HLA-A*1101 (Homo sapiens, UniProt P04439, A114D/D185E/E176A/F33Y/L180Q/S129P/T187R) | 178

State measured IC50 of the sequence KFIDFYSRIR with HLA-A*1101 (Homo sapiens, UniProt P04439, A114D/D185E/E176A/F33Y/L180Q/S129P/T187R). 9010

Quote IC50 with test system HLA-A*1101 (Homo sapiens, UniProt P04439, A114D/D185E/E176A/F33Y/L180Q/S129P/T187R) for YLFNQHIKK 7.8

State IC50 on HLA-A*1101 (Homo sapiens, UniProt P04439, A114D/D185E/E176A/F33Y/L180Q/S129P/T187R). Entry: AVSEIQNNK 11

###

# log10 of IC50 per record follows
subject-of-test: HLA-DR DRB1*0101 (DR1) (Homo sapiens, UniProt P01903+P01911, A100R/D57E/F55L/F60I/F76Y/I96L/L162R/M171V/P40L/Q125E/R42F/V115G/Y59C)
experiment: biochemical
Assay type: binding
measurement-setup: DRB1 *0101
The figures below represent log10 of IC50, where IC50 is stated in nM.

Consider the reported log10 of IC50 for these compounds:
smiles-string | measurement-label | readout-value
CC[C@H](C)[C@H](NC(=O)[C@@H](NC(=O)[C@H](Cc1c[nH]cn1)NC(=O)[C@@H](N)CCCNC(=N)N)C(C)C)C(=O)N[C@@H](Cc1ccc(O)cc1)C(=O)N[C@@H](C)C(=O)N1CCC[C@H]1C(=O)N[C@@H](CO)C(=O)N[C@@H](CO)C(=O)N[C@@H](Cc1c[nH]cn1)C(=O)N[C@@H](CC(N)=O)C(=O)N[C@@H](CCCCN)C(=O)N[C@@H](Cc1ccc(O)cc1)C(=O)N[C@@H](C)C(=O)NCC(=O)O | log10 of IC50 | 3.34
CC[C@H](C)[C@H](NC(=O)CNC(=O)[C@H](CCC(N)=O)NC(=O)[C@H](CC(C)C)NC(=O)[C@@H](NC(=O)CNC(=O)[C@H](CC(N)=O)NC(=O)[C@H](CS)NC(=O)[C@@H](NC(=O)[C@H](CC(C)C)NC(=O)[C@@H]1CCCN1C(=O)CN)C(C)C)C(C)C)C(=O)N[C@H](C(=O)N[C@@H](CO)C(=O)N[C@@H](Cc1c[nH]c2ccccc12)C(=O)O)[C@@H](C)O | log10 of IC50 | 3.24
CC[C@H](C)[C@H](NC(=O)[C@H](CS)NC(=O)[C@H](Cc1c[nH]cn1)NC(=O)[C@H](C)NC(=O)[C@H](C)NC(=O)[C@@H](NC(=O)[C@H](CC(C)C)NC(=O)[C@@H](NC(=O)[C@H](Cc1c[nH]c2ccccc12)NC(=O)[C@@H](N)CCC(N)=O)C(C)C)[C@@H](C)O)C(=O)N[C@@H](CCCNC(=N)N)C(=O)N[C@@H](CC(N)=O)C(=O)N[C@@H](CCCCN)C(=O)N[C@@H](CO)C(=O)N[C@H](C(=O)O)C(C)C | log10 of IC50 | 1.70

Give the value of log10 of IC50 reported for the following: CC[C@H](C)[C@H](NC(=O)[C@H](CCC(N)=O)NC(=O)[C@@H](N)CCCNC(=N)N)C(=O)N[C@@H](Cc1ccc(O)cc1)C(=O)N[C@H](C(=O)N[C@@H](C)C(=O)N[C@@H](C)C(=O)N[C@@H](Cc1ccccc1)C(=O)N[C@H](C(=O)N[C@H](C(=O)N[C@@H](CCC(N)=O)C(=O)N[C@@H](C)C(=O)N[C@@H](C)C(=O)N[C@@H](C)C(=O)N[C@@H](CCC(=O)O)C(=O)O)C(C)C)[C@@H](C)O)C(C)C 0.57

Assign log10 of IC50 to the following record: CC[C@H](C)[C@H](NC(=O)[C@H](CCCCN)NC(=O)[C@H](CCSC)NC(=O)[C@H](CC(=O)O)NC(=O)[C@H](CCCNC(=N)N)NC(=O)[C@H](CCC(=O)O)NC(=O)[C@H](CC(C)C)NC(=O)[C@H](CCCCN)NC(=O)[C@H](Cc1ccccc1)NC(=O)[C@@H](N)Cc1ccccc1)C(=O)N[C@@H](CC(N)=O)C(=O)N[C@@H](CS)C(=O)N[C@@H](CO)C(=O)NCC(=O)N[C@@H](CCCCN)C(=O)O 3.65

Identify the reported log10 of IC50 for the following entry. CC[C@H](C)[C@H](N)C(=O)N[C@@H](CC(C)C)C(=O)N[C@@H](CC(C)C)C(=O)N[C@@H](Cc1c[nH]c2ccccc12)C(=O)N[C@@H](CCC(N)=O)C(=O)N1CCC[C@H]1C(=O)N[C@H](C(=O)N1CCC[C@H]1C(=O)N[C@H](C(=O)N[C@@H](Cc1c[nH]cn1)C(=O)N[C@H](C(=O)N[C@H](C(=O)N1CCC[C@H]1C(=O)N[C@@H](CC(C)C)C(=O)N[C@@H](CO)C(=O)O)C(C)C)[C@@H](C)O)C(C)C)[C@@H](C)CC 1.65

Consider the compound CSCC[C@H](NC(=O)[C@@H]1CCCN1C(=O)[C@H](CC(=O)O)NC(=O)[C@@H](N)Cc1ccc(O)cc1)C(=O)N[C@@H](Cc1ccccc1)C(=O)N[C@@H](CCCCN)C(=O)N[C@@H](Cc1ccc(O)cc1)C(=O)N[C@@H](Cc1c[nH]cn1)C(=O)N[C@@H](CC(C)C)C(=O)N[C@H](C(=O)N[C@H](C(=O)N[C@@H](C)C(=O)N[C@@H](CCC(N)=O)C(=O)N[C@H](C(=O)N[C@@H](CCCNC(=N)N)C(=O)O)C(C)C)C(C)C)[C@@H](C)O . State its measured log10 of IC50. 0.95

Give log10 of IC50 for CC(C)C[C@H](NC(=O)[C@@H](NC(=O)[C@H](CCC(=O)O)NC(=O)[C@H](C)NC(=O)[C@H](C)NC(=O)[C@H](C)NC(=O)[C@H](CCC(N)=O)NC(=O)[C@@H](NC(=O)[C@@H](NC(=O)[C@H](Cc1ccccc1)NC(=O)[C@H](C)NC(=O)[C@H](C)NC(=O)[C@@H](N)C(C)C)[C@@H](C)O)C(C)C)[C@@H](C)O)C(=O)N[C@@H](CO)C(=O)N[C@@H](CCC(=O)O)C(=O)O 1.15

Where these numbers come from: patent US20060079453A1
